System: SN12C renal
Assay summary: NCI tumour cell line growth inhibition, 48 h
Measure name: TGI

Compound	TGI
O=C1c2ccc3c4ccccc4n(Cc4ccccc4)c3c2C(=O)N1c1ccccc1	30.1 µM
N.N.N.N.[Cl-].[Co+3].[N-]=[N+]=[N-].[N-]=[N+]=[N-]	> 100 µM
COC(=O)C1=C(C(=O)OC)SC2(S1)C1=C(CCCC1)SC(C(=O)OC)=C2C(=O)OC	14.6 µM
COc1cc(CNc2ccc(SC)cc2)cc(OC)c1OC	> 100 µM

input: What measured TGI goes with `O=C1c2ccccc2CCCCCCCCCCC12OCCCO2` ?
output: > 100 µM

input: For `Cc1ccc([C@H]2CC(=O)C[C@H](c3ccc(C)cc3)C23C(=O)c2ccccc2C3=O)cc1` then?
output: > 100 µM

input: Okay, and `Cc1cc(C2(O)C=C(C(C)(C)C)C(=O)C(C(C)(C)C)=C2)c(C)cc1C1(O)C=C(C(C)(C)C)C(=O)C(C(C)(C)C)=C1` ?
output: > 100 µM

----------
Tested on: HCT-116 colon
Assay summary: NCI tumour cell line growth inhibition, 48 h
Measure name: GI50

Below, 6 compounds whose answers are already recorded.
Compound	GI50
O=C(Nc1ccc(-n2cc(-c3ccncc3)c(-c3ccc(Cl)c(O)c3)n2)cc1)Nc1ccc(Cl)c(C(F)(F)F)c1	1.29 µM
COc1ccc(Nc2c3ccccc3nc3occ(Cl)c23)cc1	< 0.01 µM
COc1ccc(-c2c[nH]c(=S)n2-c2ccc(OC)cc2)cc1	> 50 µM
CCC(C)(C)c1ccc(OCCCCCCN2CCNCC2)cc1	1.7 µM
COc1ccc2c(c1)C(C)Cc1c(ncnc1-n1c(C)nc3ccccc31)N2C (stereo not given)	3.46 µM
Cc1cc(N/N=C/c2nc(-c3ccc(Br)cc3)oc2C)c2cc(Br)ccc2n1	3.52 µM

input: # input compound: `O=C(CSC(c1ccccc1)c1ccccc1)N/N=C/c1ccc(Cl)cc1Cl` ; wanted: its GI50
output: 18.5 µM

input: Consider next the compound CCCCC1(CN2CCOCC2)S/C(=N/c2nc(CC(=O)OCC)cs2)NC1=O (stereo not given) in the same way.
output: 22 µM

input: Same lookup for `Cc1ccc(S(=O)(=O)NCCNc2nccc(-c3c(-c4ccc(F)cc4)nc4sccn34)n2)cc1` , please.
output: 3.88 µM

input: Then what about the compound `O=C(Nc1ccc(Br)cc1)c1ccc(Cl)c(Cl)c1` ?
output: 2.72 µM

----------
System: SNB-19 CNS
Assay summary: NCI tumour cell line growth inhibition, 48 h
Overview of recorded TGI for various compounds

Compound	TGI
C=CCCC(=O)CC(O)(C(F)(F)F)C(F)(F)F	> 100 µM

input: // TGI lookup, key: `Cc1cc(S(=O)(=O)N/N=C(\Sc2cc(Cl)c(C)cc2S(N)(=O)=O)c2ccc(Cl)cc2)c(Cl)cc1Cl`
output: > 100 µM

input: Quick one: `CC(=O)O[C@H](C[C@H](C(C)C)N(C)C(=O)[C@@H](NC(=O)[C@H]1CCCCN1C)C(C)C)c1nc(C(=O)N[C@@H](Cc2ccccc2)C[C@H](C)C(=O)O)c(CCOCc2ccccc2)s1`
output: > 10 µM

input: Subsequent entry: `CN1NC(=Nc2ccccc2)Sc2c1cnn(-c1ccccc1)c2=O`
output: > 100 µM

input: Can you check `O=C(O)CC[N+]1=CCC(c2ccccc2)(c2ccccc2)O1` next?
output: > 100 µM

input: Same again, this time with `CC(=O)c1ccc2c3c1[C@@H]1O[C@@H]1c1cccc(c1-3)[C@@H]1O[C@H]21`
output: > 60.9 µM

input: Moving on to `Cc1cn2c(/C=C3\C(=O)N(C)c4ccc(O)cc43)c(C)nc2s1`
output: 39.1 µM

input: Next compound up: `CC(C)OC(=O)NNc1cc(Cl)ccc1Cl`
output: > 100 µM

input: Would you kindly repeat that for Cc1ccc2c(c1)[nH]c1cc(C(F)(F)F)ccc1[p+]2=O (stereo not drawn) ?
output: 76.7 µM

input: Next compound up: `Cc1cc(C)[n+](CCOc2ccc(/C(=C(/Cl)c3ccccc3)c3ccccc3)cc2)c(C)c1`
output: 5.21 µM

input: Next entry: `N#Cc1nc(-c2cccs2)oc1N`
output: > 100 µM

input: Now this one: `CCOC(=O)/C=C(\C(=O)OCC)n1cc(C)c(=O)n(Cc2cnnn2CCCCOC(C)=O)c1=O`
output: > 66.5 µM

input: `C[C@@]12CCCc3coc(c31)C(=O)c1cc3c(cc12)C(=O)C=CC3=O` ?
output: > 100 µM

input: Next: COC(=O)CCC(=O)CC1CC(=O)C2CCCN12 (stereo not drawn)
output: > 100 µM

input: Request: `O=C1c2ccc3c4ccccc4n(Cc4ccccc4)c3c2C(=O)N1c1ccccc1`
output: 42.3 µM

input: Another compound: `O=[N+]([O-])c1ccc2c(c1)C(c1ccccc1Cl)=Nc1cn[nH]c1N2`
output: > 25 µM

input: Note, next up: `COC(=O)C1=C2SCc3cccc(c3)CSC3=C(C(=O)OC)SC(=C(S2)S1)S3`
output: > 100 µM

input: Same lookup for `COc1ccc(O)cc1` , please.
output: > 100 µM

input: Again, but for `CN[C@@H](C)[C@H](NC)c1ccccc1`
output: > 100 µM

input: Next up: `Cc1c(C2=C(Br)C(=O)N(C)C2=O)c(=O)n(C)c(=O)n1C`
output: > 100 µM

input: And then `O=c1c2c([N+](=O)[O-])cccc2nc2[nH]c3ccccc3n12` , what is it?
output: > 75 µM

input: `O=C(Nc1ccc(-c2ccccc2)cc1)C1CCN(S(=O)(=O)c2ccccc2Cl)CC1` ?
output: > 100 µM

input: Field entry: `CC1=NN2C(=N)/C(=C/c3ccco3)C(=O)N=C2S1`
output: > 100 µM
